Study target: Disintegrin and metalloproteinase domain-containing protein 17 (Homo sapiens, UniProt P78536)
Sequence (P78536 whole entry, the tested form may be a part): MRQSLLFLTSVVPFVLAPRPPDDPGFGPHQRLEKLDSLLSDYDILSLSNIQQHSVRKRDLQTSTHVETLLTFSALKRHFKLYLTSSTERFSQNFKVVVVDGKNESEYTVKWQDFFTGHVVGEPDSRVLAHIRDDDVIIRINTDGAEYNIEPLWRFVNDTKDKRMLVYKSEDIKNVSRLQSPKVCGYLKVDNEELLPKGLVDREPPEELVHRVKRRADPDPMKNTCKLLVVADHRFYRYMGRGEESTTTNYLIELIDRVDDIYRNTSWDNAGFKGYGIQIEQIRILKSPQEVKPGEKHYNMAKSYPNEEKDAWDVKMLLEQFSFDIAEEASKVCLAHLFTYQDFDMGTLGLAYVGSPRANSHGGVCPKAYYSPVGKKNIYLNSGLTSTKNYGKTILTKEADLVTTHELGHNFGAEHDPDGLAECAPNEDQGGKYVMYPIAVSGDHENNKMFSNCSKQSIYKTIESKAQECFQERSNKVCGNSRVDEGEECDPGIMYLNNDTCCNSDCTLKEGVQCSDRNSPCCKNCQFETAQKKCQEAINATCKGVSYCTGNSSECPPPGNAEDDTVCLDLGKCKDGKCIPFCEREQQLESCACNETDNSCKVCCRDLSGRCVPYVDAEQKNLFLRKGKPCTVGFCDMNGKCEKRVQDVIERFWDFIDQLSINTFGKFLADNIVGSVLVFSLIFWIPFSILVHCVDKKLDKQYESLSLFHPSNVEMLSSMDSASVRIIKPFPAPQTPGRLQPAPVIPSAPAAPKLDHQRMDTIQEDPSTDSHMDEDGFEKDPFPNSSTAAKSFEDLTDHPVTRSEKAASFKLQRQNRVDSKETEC
Protocol notes: Inhibition of TNF(tumor necrosis factor) in human blood
Type: functional
Exam item: assign 1 to entries whose IC50 is below 5 µM and -1 to entries at or above 5 µM. Note that a value of exactly 5 µM receives -1.

Dear colleague, could you confirm whether IC50 of `CNC(=O)[C@@H](NC(=O)[C@H](CC(C)C)[C@H](NC(=O)c1ccc2ccccc2c1)C(=O)NO)C(C)(C)C` falls below 5 µM? Thanks. -1

Now give it for `CNC(=O)[C@H](Cc1ccccc1)NC(=O)[C@H](CC(C)C)[C@H](CSc1ccccc1)C(=O)NO` too. -1

Now give it for CNC(=O)[C@@H](NC(=O)C(CC(C)C)C(NCc1ccccc1)C(=O)NO)C(C)(C)C (single isomer, unassigned) too. -1

Now give it for `CNC(=O)[C@@H](NC(=O)[C@H](CC(C)C)[C@H](NS(C)(=O)=O)C(=O)NO)C(C)(C)C` too. 1

Now give it for `CNC(=O)[C@@H](NC(=O)[C@H](CC(C)C)[C@H](SCc1cccc2cccnc12)C(=O)NO)C(C)(C)C` too. -1

Now give it for `CNC(=O)[C@@H](NC(=O)[C@H](CC(C)C)[C@H](OCc1cccc2nccnc12)C(=O)NO)C(C)(C)C` too. -1

Now give it for CNC(=O)[C@@H](NC(=O)C(CC(C)C)C(NS(=O)(=O)c1ccc(NC(C)=O)cc1)C(=O)NO)C(C)(C)C (single isomer, unassigned) too. 1

Attribution: ChEMBL document CHEMBL1132484
